- TARGET OR TEST SYSTEM: VEGFR-2 (Homo sapiens)
- Construct: purchased BPS Biosciences 40325
- Sequence (P35968 20-1356): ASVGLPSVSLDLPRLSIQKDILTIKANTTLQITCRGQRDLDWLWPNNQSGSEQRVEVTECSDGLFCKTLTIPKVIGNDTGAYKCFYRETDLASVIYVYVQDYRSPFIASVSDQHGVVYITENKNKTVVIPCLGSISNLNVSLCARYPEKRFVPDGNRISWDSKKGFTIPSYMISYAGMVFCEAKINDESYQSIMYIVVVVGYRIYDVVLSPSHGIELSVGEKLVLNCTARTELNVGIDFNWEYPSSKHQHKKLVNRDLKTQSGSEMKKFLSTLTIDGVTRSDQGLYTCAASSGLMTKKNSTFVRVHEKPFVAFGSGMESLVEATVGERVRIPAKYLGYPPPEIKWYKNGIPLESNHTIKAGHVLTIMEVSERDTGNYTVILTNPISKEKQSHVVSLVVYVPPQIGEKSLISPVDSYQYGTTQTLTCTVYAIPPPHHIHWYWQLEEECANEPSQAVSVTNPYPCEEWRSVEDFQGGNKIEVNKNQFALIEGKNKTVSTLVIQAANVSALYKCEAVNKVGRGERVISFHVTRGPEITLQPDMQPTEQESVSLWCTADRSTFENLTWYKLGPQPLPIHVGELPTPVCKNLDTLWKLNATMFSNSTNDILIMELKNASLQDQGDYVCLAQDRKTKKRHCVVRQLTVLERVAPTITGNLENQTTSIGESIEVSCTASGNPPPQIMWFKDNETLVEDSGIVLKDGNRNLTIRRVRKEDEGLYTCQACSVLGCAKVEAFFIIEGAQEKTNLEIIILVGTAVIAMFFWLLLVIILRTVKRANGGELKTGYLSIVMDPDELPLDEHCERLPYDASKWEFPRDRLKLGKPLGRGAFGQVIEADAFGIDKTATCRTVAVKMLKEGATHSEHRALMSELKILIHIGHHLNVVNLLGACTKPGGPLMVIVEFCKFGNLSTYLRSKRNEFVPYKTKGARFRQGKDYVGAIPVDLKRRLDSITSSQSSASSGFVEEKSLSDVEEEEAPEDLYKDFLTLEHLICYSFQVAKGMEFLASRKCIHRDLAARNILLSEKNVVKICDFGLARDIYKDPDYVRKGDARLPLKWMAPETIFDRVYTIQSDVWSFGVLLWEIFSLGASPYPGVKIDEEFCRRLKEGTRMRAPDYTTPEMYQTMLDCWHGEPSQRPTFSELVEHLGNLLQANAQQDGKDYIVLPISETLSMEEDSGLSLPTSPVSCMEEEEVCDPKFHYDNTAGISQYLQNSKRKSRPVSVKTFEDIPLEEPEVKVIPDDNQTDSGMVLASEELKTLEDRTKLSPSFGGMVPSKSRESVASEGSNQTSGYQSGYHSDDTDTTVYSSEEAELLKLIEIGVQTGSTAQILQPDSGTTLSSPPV
- PROCEDURE TEXT: VEGFR-2 kinase assay kit (BPS), Kinase-Glo Max luminescence
- Type: biochemical
- CONDITION DESCRIPTION: VEGFR-2, single dose 10 µM, duplicate, mean ± SD
QUANTITY NAME: inhibition at 10 µM (%)
One number for each entry, in %.

Past entries and their recorded results:
Query block: // query inhibition at 10 µM value for entry COc1cccc(C=NNC(=O)c2ccc3[nH]c(-c4ccccc4)nc3c2)c1O [8d]
Result block: 53.8

Query block: Subsequent entry: COc1ccc(-c2nc3cc(C(=O)NN=Cc4cccc(OC)c4)ccc3[nH]2)cc1 [8j]
Result block: 15.7

Query block: Continue with COc1ccc(OC)c(C=NNC(=O)c2ccc3[nH]c(-c4ccccc4)nc3c2)c1 [8f]
Result block: 58.3

Query block: Would you mind doing COc1ccc(-c2nc3cc(C(=O)NN=Cc4ccccc4O)ccc3[nH]2)cc1 [8h] as well?
Result block: 62.9

Query block: O=C(NN=Cc1cccc(O)c1)c1ccc2[nH]c(-c3ccc(Cl)cc3)nc2c1 [8p] ?
Result block: 22.3

Below are some compounds; for each one, tell me its inhibition at 10 µM.
1. COc1cccc(C=NNC(=O)c2ccc3[nH]c(-c4ccc(Cl)cc4)nc3c2)c1 [8q]
2. COc1ccc(-c2nc3cc(C(=O)NN=Cc4cccc(O)c4)ccc3[nH]2)cc1 [8i]
3. COc1cc(C=NNC(=O)c2ccc3[nH]c(-c4ccc(Cl)cc4)nc3c2)cc(OC)c1OC [8u]
4. O=C(NN=Cc1ccccc1O)c1ccc2[nH]c(-c3ccc(Cl)cc3)nc2c1 [8o]

Result block:
1: 21.5; 2: 45.2; 3: 80; 4: 22.3

###

- Test system: SNB-19
- PROCEDURE TEXT: NCI SRB growth inhibition (single dose 10 µM / five-dose)
- Assay type: cell-based, human
- CONDITION DESCRIPTION: Homo sapiens; SNB-19, CNS cancer; five-dose
Assign labels as follows, please: Y for GI50 below 2000 nM; N for GI50 equal to or exceeding 2000 nM.

Query block: Is the reported GI50 for COc1cccc(C=NNC(=O)c2ccc3[nH]c(-c4ccccc4)nc3c2)c1O [8d] strictly below 2000 nM?
Result block: N

Query block: Again, but for COc1ccc(-c2nc3cc(C(=O)NN=Cc4ccccc4O)ccc3[nH]2)cc1 [8h]
Result block: Y

Query block: Then O=C(NN=Cc1ccccc1O)c1ccc2[nH]c(-c3ccc(Cl)cc3)nc2c1 [8o] ?
Result block: Y

Query block: Cool, now COc1cccc(C=NNC(=O)c2ccc3[nH]c(-c4ccc(Cl)cc4)nc3c2)c1 [8q]
Result block: N

Query block: // query: COc1ccc(-c2nc3cc(C(=O)NN=Cc4cccc(OC)c4O)ccc3[nH]2)cc1 [8k]
Result block: N

Query block: Item: COc1cc(C=NNC(=O)c2ccc3[nH]c(-c4ccc(Cl)cc4)nc3c2)cc(OC)c1OC [8u]
Result block: N

Continuing:
Query block: Below 2000 nM on GI50? Entry COc1ccc(-c2nc3cc(C(=O)NN=Cc4cccc(OC)c4)ccc3[nH]2)cc1 [8j]
Result block: N

Query block: And COc1cccc(C=NNC(=O)c2ccc3[nH]c(-c4ccc(Cl)cc4)nc3c2)c1O [8r] ?
Result block: Y

###

Please provide measured inhibition at 10 µM for the entries that follow.
- Test system: U251
- PROCEDURE TEXT: NCI SRB growth inhibition (single dose 10 µM / five-dose)
- Format: cell-based, human
- CONDITION DESCRIPTION: Homo sapiens, U-251; U251 (CNS cancer), 10 µM; read-out: GI%
- Protocol: Screening of cytotoxic activity against a panel of sixty human tumor cell lines The selected compounds by NCI were evaluated for their anticancer activity in a two- stage process. […] Using the seven absorbance measurements [time zero, (Tz), control growth, (C), and test growth in the presence of drug at the five concentration levels (Ti)], the percentage growth is calculated at each of the drug concentrations levels. […] Three dose response parameters are calculated for each experimental agent. […]
Answers are plain numbers, in %.

The following molecules each have a reported value; give each one's inhibition at 10 µM.
1. COc1ccc(-c2nc3cc(C(=O)NN=Cc4cccc(O)c4)ccc3[nH]2)cc1
2. COc1ccc(C=NNC(=O)c2ccc3[nH]c(-c4ccc(Cl)cc4)nc3c2)cc1O

Result block:
[32.1, 75.2]

###

- Tested on: HL-60(TB)
- PROCEDURE TEXT: NCI SRB growth inhibition (single dose 10 µM / five-dose)
- Format: cell-based, human
- CONDITION DESCRIPTION: Homo sapiens; HL-60(TB) (Leukemia), 10 µM; read-out: GI%
For each of the compounds below, state its inhibition at 10 µM.
One number for each entry, in %.

Sample records with inhibition at 10 µM:
Query block: // lookup inhibition at 10 µM for COc1ccc(OC)c(C=NNC(=O)c2ccc3[nH]c(-c4ccccc4)nc3c2)c1
Result block: 36.3

Query block: Same for COc1cccc(C=NNC(=O)c2ccc3[nH]c(-c4ccccc4)nc3c2)c1
Result block: 38.1

Query block: Another compound: COc1ccc(OC)c(C=NNC(=O)c2ccc3[nH]c(-c4ccc(Cl)cc4)nc3c2)c1
Result block: 12.9

Query block: And for COc1cc(C=NNC(=O)c2ccc3[nH]c(-c4ccccc4)nc3c2)cc(OC)c1OC ?
Result block: 17.1

Query block: Follow-up item: COc1ccc(-c2nc3cc(C(=O)NN=Cc4ccc(OC)c(O)c4)ccc3[nH]2)cc1
Result block: 52.2

Query block: Now try COc1cccc(C=NNC(=O)c2ccc3[nH]c(-c4ccc(Cl)cc4)nc3c2)c1 .
Result block: 50.7

Query block: How about O=C(NN=Cc1ccccc1O)c1ccc2[nH]c(-c3ccc(Cl)cc3)nc2c1 ?
Result block: 47.1

Query block: Okay, and COc1ccc(C=NNC(=O)c2ccc3[nH]c(-c4ccccc4)nc3c2)cc1O ?
Result block: 24.7

Parameter requested: inhibition at 10 µM. Apply to each item below.
1. COc1ccc(-c2nc3cc(C(=O)NN=Cc4cccc(OC)c4)ccc3[nH]2)cc1
2. COc1ccc(C=NNC(=O)c2ccc3[nH]c(-c4ccc(Cl)cc4)nc3c2)cc1O
3. COc1cc(C=NNC(=O)c2ccc3[nH]c(-c4ccc(Cl)cc4)nc3c2)cc(OC)c1OC
4. O=C(NN=Cc1cccc(O)c1)c1ccc2[nH]c(-c3ccccc3)nc2c1
5. COc1ccc(-c2nc3cc(C(=O)NN=Cc4cc(OC)ccc4OC)ccc3[nH]2)cc1
6. COc1ccc(-c2nc3cc(C(=O)NN=Cc4cccc(O)c4)ccc3[nH]2)cc1

Result block:
1. 30.4
2. 45.3
3. 67.8
4. 14.4
5. 18.8
6. 55.1

Parameter requested: inhibition at 10 µM. Apply to each item below.
1. COc1ccc(-c2nc3cc(C(=O)NN=Cc4ccccc4O)ccc3[nH]2)cc1
2. COc1cccc(C=NNC(=O)c2ccc3[nH]c(-c4ccccc4)nc3c2)c1O

Result block:
1. 82.9
2. 90

###

Consider the following compounds; for each one, report its GI50.
- Tested on: CAKI-1
- PROCEDURE TEXT: NCI SRB growth inhibition (single dose 10 µM / five-dose)
- Assay type: cell-based, human
- CONDITION DESCRIPTION: Homo sapiens; CAKI-1, Renal cancer; five-dose
Numbers only, in nM.

Query block: // returns reported GI50 for input O=C(NN=Cc1ccccc1O)c1ccc2[nH]c(-c3ccc(Cl)cc3)nc2c1
Result block: 220

Query block: Then what about the compound COc1cccc(C=NNC(=O)c2ccc3[nH]c(-c4ccccc4)nc3c2)c1O ?
Result block: 2680

Let's switch to this compound now.
Query block: Look up GI50: COc1cccc(C=NNC(=O)c2ccc3[nH]c(-c4ccc(Cl)cc4)nc3c2)c1O
Result block: 2310

###

Could you please report measured inhibition at 10 µM for the items listed next?
- System: U251
- PROCEDURE TEXT: NCI SRB growth inhibition (single dose 10 µM / five-dose)
- Format: cell-based, human
- CONDITION DESCRIPTION: Homo sapiens, U-251; U251 (CNS cancer), 10 µM; read-out: GI%
Numbers only, in %.

Worked cases, inhibition at 10 µM given:
Query block: inhibition at 10 µM for COc1cc(C=NNC(=O)c2ccc3[nH]c(-c4ccccc4)nc3c2)cc(OC)c1OC ?
Result block: 42.3

Query block: What about this molecule? COc1ccc(-c2nc3cc(C(=O)NN=Cc4cc(OC)c(OC)c(OC)c4)ccc3[nH]2)cc1
Result block: 15.3

Turning to the following molecule.
Query block: Look at this molecule and give its reported inhibition at 10 µM. COc1cccc(C=NNC(=O)c2ccc3[nH]c(-c4ccccc4)nc3c2)c1O
Result block: 99.9

Data origin: paper PMC10893631
